Tested on: HT-29
Assay: Drug metabolism in human HT-29 cells assessed as amount of drug metabolized for one log of cell kill at their CT10 concentration for 1 hr
Format: ADME, cell-based
Conditions: ht-29, 1 h
Parameter threshold = 2000 µM. Response is t when Activity meets or exceeds it, else f.

1. Nc1n[n+]([O-])c2ccccc2[n+]1[O-] = f
2. CCc1n[n+]([O-])c2cc3c(cc2[n+]1[O-])CC(CCN1CCOCC1)C3 (configuration not stated) = f
3. CCc1n[n+]([O-])c2cc3c(cc2[n+]1[O-])CC(CO)C3 (configuration not stated) = t
4. CCc1n[n+]([O-])c2cc3c(cc2[n+]1[O-])CC(CCO)C3 (configuration not stated) = t
5. CCN(CC)CCNc1n[n+]([O-])c2cc3c(cc2[n+]1[O-])CCC3 = t
6. CCN(CC)CCNc1n[n+]([O-])c2cc3c(cc2[n+]1[O-])OCC3 = f
7. Nc1n[n+]([O-])c2cc3c(cc2[n+]1[O-])CCC3 = t
8. CCCN(CCC)CCNc1n[n+]([O-])c2c3c(ccc2[n+]1[O-])CCC3 = t
9. CN(C)CCNc1n[n+]([O-])c2c3c(ccc2[n+]1[O-])CCC3 = t
10. CCCN(CCC)CCNc1n[n+]([O-])c2cc3c(cc2[n+]1[O-])CCC3 = t
11. CC1Cc2cc3c(cc2C1)[n+]([O-])c(CCCO)n[n+]3[O-] (configuration not stated) = t
12. [O-][n+]1nc(NCCN2CCCCC2)[n+]([O-])c2ccc3c(c21)CCC3 = t
13. CCc1n[n+]([O-])c2cc3c(cc2[n+]1[O-])CC(CN1CCOCC1)C3 (configuration not stated) = f
14. CCN(CC)CCNc1n[n+]([O-])c2c3c(ccc2[n+]1[O-])CCC3 = t
15. CN(C)CCNc1n[n+]([O-])c2c3c(ccc2[n+]1[O-])OCCC3 = t
16. [O-][n+]1nc(NCCCN2CCOCC2)[n+]([O-])c2ccc3c(c21)CCC3 = t
17. CN(C)CCNc1n[n+]([O-])c2c3c(ccc2[n+]1[O-])CCCC3 = t
18. CN(C)CCNc1n[n+]([O-])c2cc3c(cc2[n+]1[O-])CCCCC3 = t
19. [O-][n+]1nc(NCCCN2CCOCC2)[n+]([O-])c2cc3c(cc21)CCCC3 = t
20. [O-][n+]1nc(NCCN2CCCCC2)[n+]([O-])c2cc3c(cc21)CCC3 = t
21. [O-][n+]1nc(CCCN2CCOCC2)[n+]([O-])c2cc3c(cc21)CCO3 = f
22. CN(C)CCNc1n[n+]([O-])c2cc3c(cc2[n+]1[O-])CCC3 = f
23. CC1Cc2cc3c(cc2C1)[n+]([O-])c(NCCN(C)C)n[n+]3[O-] (configuration not stated) = t
24. CN(C)CCNc1n[n+]([O-])c2cc3c(cc2[n+]1[O-])OCC3 = t
25. [O-][n+]1nc(NCCCN2CCOCC2)[n+]([O-])c2cc3c(cc21)OCC3 = t
26. CC1Cc2cc3c(cc2C1)[n+]([O-])c(NCCCN1CCOCC1)n[n+]3[O-] (configuration not stated) = f
27. COc1ccc2c(c1)[n+]([O-])c(NCCN(C)C)n[n+]2[O-] = f
28. [O-][n+]1nc(NCCCN2CCOCC2)[n+]([O-])c2cc3c(cc21)CCO3 = t
29. [O-][n+]1nc(CCCN2CCOCC2)[n+]([O-])c2cc3c(cc21)CC(CO)C3 (configuration not stated) = t
30. [O-][n+]1nc(NCCCN2CCOCC2)[n+]([O-])c2cc3c(cc21)CCC3 = f
